Cited source for all entries: PubChem BioAssay AID1381

experiment: inhibitors of GR-EGFP nuclear translocation, primary screen, dynein cargo transport inhibitor project, imaging, high-content, 3617.4 mouse cells (AID 1381); conditions: measured here: cell count per field, at 20 µM, stimulated with dexamethasone, 1 µM
Screen size: about 220,000 compounds; about 1,000 (0.45%) were called active. For the sample, actives were picked, then their nearest neighbours and some compounds at random.
Classification field: enter true for z-score values not below -0.4, false for values below it.

# compound, cat
data = [
    ("CCCC[N+]1(C)C2CC(OC(=O)C(CO)c3ccccc3)CC1C1OC12 (configuration not stated)", "true"),
    ("OC1/C(=C/c2ccc(C(F)(F)F)cc2)N2CCC1CC2 (configuration not stated)", "true"),
    ("Cc1cc(C=C2C(=O)NC(=O)NC2=O)c(C)n1-c1ccncc1", "false"),
    ("Cc1cccc(N2C(=O)NC(=O)/C(=C\\c3cnn(-c4ccccc4)c3)C2=O)c1", "false"),
    ("Cc1c(C(=O)O)cccc1-n1c(C)cc(/C=C2\\C(=O)NC(=O)N(c3ccc4c(c3)OCO4)C2=O)c1C", "true"),
    ("O=C1NC(=O)N(c2ccc(F)cc2)C(=O)/C1=C/c1ccc2c(c1)CCCN2Cc1ccccc1", "false"),
    ("Cc1ccccc1N1C(=O)NC(=O)/C(=C\\c2cc(C)n(C)c2C)C1=O", "true"),
]

----------
Parameter z-score: see the listing below.
experiment: inhibitors of GR-EGFP nuclear translocation, primary screen, dynein cargo transport inhibitor project, imaging, high-content, 3617.4 mouse cells (AID 1381); settings: measured here: nuclear GR-EGFP intensity, at 20 µM, stronger effect = lower value, stimulated with dexamethasone, 1 µM
Hit rate of the full screen: of about 220,000 compounds, about 1,000 (0.45%) were called active. Many of the other results were omitted from the sample, so actives are more common in it than they were.
endpoint_name: z-score

# compound, endpoint_name, quantitative_readout
data = [
    ("CC(c1ccccc1)(c1ccccc1)c1ccncc1", "z-score", -0.628),
    ("OC1/C(=C/c2ccc(C(F)(F)F)cc2)N2CCC1CC2 (stereo unspecified)", "z-score", -0.69),
    ("Cc1c(C(=O)O)cccc1-n1c(C)cc(/C=C2\\C(=O)NC(=O)N(c3ccc4c(c3)OCO4)C2=O)c1C", "z-score", -0.113),
    ("CCC(C)n1c(O)c(/C=N/Nc2nc3c(c(=O)n(C)c(=O)n3C)n2C)c(=O)[nH]c1=S (stereo unspecified)", "z-score", -0.129),
    ("O=C1NC(=O)N(c2ccc(F)cc2)C(=O)/C1=C/c1ccc2c(c1)CCCN2Cc1ccccc1", "z-score", 0.344),
    ("Cc1cc(C=C2C(=O)NC(=O)NC2=O)c(C)n1-c1ccncc1", "z-score", 0.621),
]

----------
assay: inhibitors of GR-EGFP nuclear translocation, primary screen, dynein cargo transport inhibitor project, imaging, high-content, 3617.4 mouse cells (AID 1381); details: at 20 µM, stronger effect = lower value, stimulated with dexamethasone, 1 µM
The campaign covered roughly 220,000 compounds. About 1,000 (0.45%) were called active. This is one part of a sample in which actives are shown more often than they occur.

# compound, z-score
records = [
    ("Cc1cccc(N2C(=O)NC(=O)/C(=C\\c3cnn(-c4ccccc4)c3)C2=O)c1", 0.124),
    ("Cc1cc(C=C2C(=O)NC(=O)NC2=O)c(C)n1-c1ccncc1", 1.16),
    ("O=C1NC(=O)N(c2ccccc2)C(=O)/C1=C/c1ccc([N+](=O)[O-])s1", -5.82),
    ("CCC(C)n1c(O)c(/C=N/Nc2nc3c(c(=O)n(C)c(=O)n3C)n2C)c(=O)[nH]c1=S (centres undefined)", -0.95),
]

----------
assay: inhibitors of GR-EGFP nuclear translocation, primary screen, dynein cargo transport inhibitor project, imaging, high-content, 3617.4 mouse cells (AID 1381); details: measured here: cytoplasmic GR-EGFP intensity, at 20 µM, stronger effect = higher value, stimulated with dexamethasone, 1 µM
The whole screen tested about 220,000 compounds, of which about 1,000 (0.45%) were called active. Only a selection was taken, and actives are over-represented in it overall.

# compound, z-score
records = [
    ("CCCC[N+]1(C)C2CC(OC(=O)C(CO)c3ccccc3)CC1C1OC12 (centres undefined)", -0.759),
    ("CN(C)CC1Oc2ccccc2OC1(O)c1ccccc1 (centres undefined)", 1.79),
    ("Cc1ccccc1N1C(=O)NC(=O)/C(=C\\c2cc(C)n(C)c2C)C1=O", -0.306),
    ("Cc1cccc(N2C(=O)NC(=O)/C(=C\\c3cnn(-c4ccccc4)c3)C2=O)c1", -0.166),
    ("O=C1NC(=O)N(c2ccc(F)cc2)C(=O)/C1=C/c1ccc2c(c1)CCCN2Cc1ccccc1", 4.11),
    ("Cc1cc(C=C2C(=O)NC(=O)NC2=O)c(C)n1-c1ccncc1", -0.229),
    ("COc1ccc(NC(=O)c2cn(CCC#N)nc2-c2ccc([N+](=O)[O-])cc2)cc1", -0.33),
    ("CCC(C)n1c(O)c(/C=N/Nc2nc3c(c(=O)n(C)c(=O)n3C)n2C)c(=O)[nH]c1=S (centres undefined)", -0.21),
    ("OC1/C(=C/c2ccc(C(F)(F)F)cc2)N2CCC1CC2 (centres undefined)", -0.265),
]
